STUDY SYSTEM: T1, C-terminal domain-deleted human Regnase-1 (amino acids 1 to 546) with N-terminal FLAG tag and C-terminal BirA … (human, UniProt Q5D1E8 1-546)
T1 sequence: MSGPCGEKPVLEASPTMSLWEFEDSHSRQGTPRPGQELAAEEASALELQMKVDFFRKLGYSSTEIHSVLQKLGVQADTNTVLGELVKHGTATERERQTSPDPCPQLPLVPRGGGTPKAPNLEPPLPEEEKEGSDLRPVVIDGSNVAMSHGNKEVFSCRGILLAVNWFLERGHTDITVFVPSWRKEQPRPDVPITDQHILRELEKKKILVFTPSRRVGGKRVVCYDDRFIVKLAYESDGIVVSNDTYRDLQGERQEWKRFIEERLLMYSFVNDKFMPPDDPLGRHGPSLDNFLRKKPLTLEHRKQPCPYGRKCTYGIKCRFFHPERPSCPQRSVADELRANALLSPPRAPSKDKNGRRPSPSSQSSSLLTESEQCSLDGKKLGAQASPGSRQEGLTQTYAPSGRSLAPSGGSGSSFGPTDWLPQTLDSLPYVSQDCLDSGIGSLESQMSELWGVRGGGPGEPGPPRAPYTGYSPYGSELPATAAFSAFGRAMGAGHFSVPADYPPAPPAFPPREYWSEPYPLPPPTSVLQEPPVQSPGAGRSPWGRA
ASSAY REMARKS: cell-based or functional assay
ASSAY METRIC: 50% inhibition concentration, Regnase-1 phosphorylation by IKKβ (AlphaScreen) (µM)
Enter your answer as a number in µM; do not include the unit.

XWIWDFWNED (HELM PEPTIDE1{[meA].W.I.W.D.F.W.N.E.D.[C1CCN([*:1])C1]}$PEPTIDE1,PEPTIDE1,1:R1-10:R3$$$V2.0; SMILES CC[C@H](C)[C@@H]1NC(=O)[C@H](Cc2c[nH]c3ccccc23)NC(=O)[C@H](C)N(C)C(=O)C[C@@H](C(=O)N2CCCC2)NC(=O)[C@H](CCC(=O)O)NC(=O)[C@H](CC(N)=O)NC(=O)[C@H](Cc2c[nH]c3ccccc23)NC(=O)[C@H](Cc2ccccc2)NC(=O)[C@H](CC(=O)O)NC(=O)[C@H](Cc2c[nH]c3ccccc23)NC1=O) [PP24] | 4
XPNSSWFKIWD (HELM PEPTIDE1{[C[C@H](C(=O)[*:2])N(C)[*:1]].P.N.S.S.W.F.K.I.W.D.[C1CCN([*:1])C1]}$PEPTIDE1,PEPTIDE1,1:R1-11:R3$$$V2.0; SMILES CC[C@H](C)[C@@H]1NC(=O)[C@H](CCCCN)NC(=O)[C@H](Cc2ccccc2)NC(=O)[C@H](Cc2c[nH]c3ccccc23)NC(=O)[C@H](CO)NC(=O)[C@H](CO)NC(=O)[C@H](CC(N)=O)NC(=O)[C@@H]2CCCN2C(=O)[C@@H](C)N(C)C(=O)C[C@@H](C(=O)N2CCCC2)NC(=O)[C@H](Cc2c[nH]c3ccccc23)NC1=O) [PP6] | 20.3

Which 50% inhibition concentration, Regnase-1 phosphorylation by IKKβ (AlphaScreen) value is on record for XDIWFDYWDWD (HELM PEPTIDE1{[meA].D.I.W.F.D.Y.W.D.W.D.[C1CCN([*:1])C1]}$PEPTIDE1,PEPTIDE1,1:R1-11:R3$$$V2.0; SMILES CC[C@H](C)[C@@H]1NC(=O)[C@H](CC(=O)O)NC(=O)[C@H](C)N(C)C(=O)C[C@@H](C(=O)N2CCCC2)NC(=O)[C@H](Cc2c[nH]c3ccccc23)NC(=O)[C@H](CC(=O)O)NC(=O)[C@H](Cc2c[nH]c3ccccc23)NC(=O)[C@H](Cc2ccc(O)cc2)NC(=O)[C@H](CC(=O)O)NC(=O)[C@H](Cc2ccccc2)NC(=O)[C@H](Cc2c[nH]c3ccccc23)NC1=O) [PP17] ?
0.3

Value source: patent US20250018014A1
